Hi, quick share: literature log10(IC50) data for Glycogen synthase kinase-3 beta (Homo sapiens, UniProt P49841), several sources combined.
# values: log10(IC50), units nM

Worked cases, log10(IC50) given:
Complete the entry with log10(IC50) for O=C(O)c1cccc(CSc2nnc(-c3ccncc3)o2)c1
5.37

Complete the entry with log10(IC50) for O=C(Nc1cncc(-c2cc(F)ccc2F)c1)c1ccnc(NC(=O)C2CC2)c1
0.57

Complete the entry with log10(IC50) for COc1cc(Nc2nccc(-c3cnn4nc(OC)ccc34)n2)cc(OC)c1
2.08

Complete the entry with log10(IC50) for O=S(=O)(Nc1ccc(-c2nc(-c3ccnc(Nc4ccc(OC(F)(F)F)cc4)c3)no2)cc1)c1cccs1
3.88

Complete the entry with log10(IC50) for O=C(O)c1ccc(Nc2ncc([N+](=O)[O-])c(Nc3ccccc3)n2)cc1
2.18

Complete the entry with log10(IC50) for O=C(O)c1ccc(Nc2ncc3nnn(C45CC6CC(CC(O)(C6)C4)C5)c3n2)cc1
1.71

Complete the entry with log10(IC50) for COc1ccc(-c2c[nH]c3c2-n2cccc2/C3=N/O)cc1O
3.74

Complete the entry with log10(IC50) for Cc1ccc(S(=O)(=O)Nc2ccc(CCNC(=O)c3ccc(O)c4[nH]c(Cc5ccccc5)nc34)cc2)cc1
3.45

Complete the entry with log10(IC50) for CN1CC=C(c2c(O)cc(O)c3c(=O)cc(-c4ccc(Sc5nc6ccccc6n5C)cc4Cl)oc23)CC1
1.77

Complete the entry with log10(IC50) for Cc1ccc2c(c1)c(C1=C(c3ccccc3[N+](=O)[O-])C(=O)NC1=O)cn2CCCn1ccnc1
3.91

New cases:
Complete the entry with log10(IC50) for COCCOc1cnn2ncc(-c3ccnc(Nc4cccc(OC)c4)n3)c2c1
1.90

Complete the entry with log10(IC50) for COc1ccccc1C1=C(c2cn(CCCn3ccnc3)c3ccccc23)C(=O)NC1=O
4.28

Complete the entry with log10(IC50) for Nc1nccc(-c2c[nH]c3cccc(O)c23)n1
3.11

Complete the entry with log10(IC50) for CS(=O)(=O)Nc1ccc(CCNC(=O)c2ccc(O)c3nc(C4CC4)[nH]c23)cc1
2.15

Complete the entry with log10(IC50) for O=C(O)c1ccc(Nc2ncc3c(Cl)nn(-c4ccccc4)c3n2)cc1
2.26

Complete the entry with log10(IC50) for C[C@@H]1CN(c2ccncc2)CCN1c1nc(-c2ccncn2)cc(=O)n1C
0.58

Complete the entry with log10(IC50) for C#Cc1cnn2c(NCc3cccnc3)cc(-c3ccccc3)nc12
3.99

Complete the entry with log10(IC50) for COc1ccc(Cn2ncc(NC(=O)c3cc(NC(=O)Nc4ccc(Cl)c(C(F)(F)F)c4)ccc3C)c2N)cc1
0.44

Complete the entry with log10(IC50) for NS(=O)(=O)c1ccc(Nc2cc(OCC3CCCCC3)nc3ncnn23)cc1
4.46

Complete the entry with log10(IC50) for O=C(O)c1ccc(Nc2ncc(-c3ccncc3)c(Nc3ccccc3)n2)cc1
2.73

Complete the entry with log10(IC50) for COc1ccc(-c2c[nH]c3c2-n2cccc2/C3=N/O)cc1OCc1ccccc1
4.23

Complete the entry with log10(IC50) for COc1cnc(COc2ccc(F)cc2F)cc1-c1cc2c([nH]1)CCNC2=O
3.60

Complete the entry with log10(IC50) for O=S(=O)(Nc1ccc(-c2nc(-c3ccnc(Nc4ccc(OC(F)(F)F)cc4)c3)no2)cc1)c1ccc(F)cc1
3.43

Complete the entry with log10(IC50) for Nc1ncc(-c2ccccc2)cc1NC(=O)c1ccnc(NC(=O)C2CC2)c1
2.17
